experiment: logD7.4 by micro-shake flask method; assay type: physicochemical; conditions: n-octanol/MOPS buffer pH 7.4, determined by LC-MS
logD listing for selected compounds.

Worked examples follow.
FCCCCC1OC2(CCN(Cc3ccccc3)CC2)c2ccccc21 (stereo not shown)
3.71
FCCCC1OC2(CCN(Cc3ccccc3)CC2)c2ccccc21 (stereo not shown)
3.6

Input: // Input: FCC1OC2(CCN(Cc3ccccc3)CC2)c2ccccc21 (stereo not shown) . Output its logD only.
Output: 2.8

Input: Answer with the recorded logD for the compound listed here: FCCC1OC2(CCN(Cc3ccccc3)CC2)c2ccccc21 (stereo not shown)
Output: 3.33

* * *

biological target: human serum albumin (Homo sapiens, UniProt P02768); assay: plasma protein binding by HPLC on human serum albumin stationary phase; format: in vitro ADME; conditions: stationary phase coated with human serum albumin
Sequence (P02768 25-609): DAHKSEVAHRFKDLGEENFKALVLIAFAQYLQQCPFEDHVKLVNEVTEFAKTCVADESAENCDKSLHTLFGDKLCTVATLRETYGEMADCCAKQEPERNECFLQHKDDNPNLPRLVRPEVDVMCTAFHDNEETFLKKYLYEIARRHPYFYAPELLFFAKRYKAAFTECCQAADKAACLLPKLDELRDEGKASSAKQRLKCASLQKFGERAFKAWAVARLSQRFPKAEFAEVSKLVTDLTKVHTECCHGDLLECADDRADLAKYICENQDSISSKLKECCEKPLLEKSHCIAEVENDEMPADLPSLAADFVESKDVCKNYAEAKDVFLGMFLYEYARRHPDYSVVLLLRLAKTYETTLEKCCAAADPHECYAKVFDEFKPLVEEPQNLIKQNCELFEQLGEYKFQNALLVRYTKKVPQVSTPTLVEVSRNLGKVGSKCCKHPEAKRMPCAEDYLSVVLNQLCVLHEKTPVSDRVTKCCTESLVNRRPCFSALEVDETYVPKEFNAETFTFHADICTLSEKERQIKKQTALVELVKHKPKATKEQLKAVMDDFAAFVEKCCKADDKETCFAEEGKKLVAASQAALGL
# fraction unbound listing for each entry below

Input: Report measured fraction unbound; entry is FCC1OC2(CCN(Cc3ccccc3)CC2)c2ccccc21 (stereo not shown) [compound 1]
Output: 0.16

* * *

tested on: σ1 receptor; assay: σ1 receptor affinity (receptor binding); settings: ratio Ki(σ2)/Ki(σ1)
# σ1/σ2 Selectivity per entry
Please respond with just the number, no unit label.

CCCCCCCCN1CCC2(CC1)OC(CCF)c1ccccc12 (stereo not drawn)
7.9
FCCCC1OC2(CCN(Cc3ccccc3)CC2)c2ccccc21 (stereo not drawn)
598
CCCCN1CCC2(CC1)OC(CCF)c1ccccc12 (stereo not drawn)
225
FCCC1OC2(CCN(Cc3ccccc3)CC2)c2ccccc21 (stereo not drawn)
1331
FCCC1OC2(CCN(Cc3ccc(F)cc3)CC2)c2ccccc21 (stereo not drawn)
844
FCC1OC2(CCN(Cc3ccccc3)CC2)c2ccccc21 (stereo not drawn)
743
FCCC1OC2(CCN(CC3CCCCC3)CC2)c2ccccc21 (stereo not drawn)
80

Next compound, please.
Input: Given the compound FCCCCC1OC2(CCN(Cc3ccccc3)CC2)c2ccccc21 (stereo not drawn) , write its reported σ1/σ2 Selectivity.
Output: 408

* * *

target: human serum albumin (Homo sapiens); experiment: plasma protein binding by HPLC on human serum albumin stationary phase; type: in vitro ADME; settings: stationary phase coated with human serum albumin
ASSAY_ENDPOINT: fraction unbound
No unit in the answer, please; the number alone is enough.

FCCC1OC2(CCN(Cc3ccccc3)CC2)c2ccccc21 (stereo not drawn) [compound 2]
0.12
FCCCCC1OC2(CCN(Cc3ccccc3)CC2)c2ccccc21 (stereo not drawn) [compound 4]
0.05

Here is another molecule to look at.
Input: Dear colleague, please send me the reported fraction unbound for FCCCC1OC2(CCN(Cc3ccccc3)CC2)c2ccccc21 (stereo not drawn) [compound 3] when you can.
Output: 0.09

Cited source for all entries: paper PMC10892410
